target_entity: T1, murine GPC3-his protein (Sino Biological, Cat. No. 50989-M08B) (murine, UniProt Q8CFZ4 25-558)
T1 construct: Bought protein; also called murine GPC3 protein
method: ELISA, coated murine GPC3-His;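 also: antigen coated on plates at 1 µg/mL, test antibody bound for 2 h at 37 °C, detected with HRP-conjugated secondary antibody and TMB substrate after acid stop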
recorded_endpoint: OD450 at 0.1 nM antibody (OD450 nm)
// units = OD450 nm; emit number, no label

Query: Determine its reported OD450 at 0.1 nM antibody: F1.3.9 human-murine chimeric antibody (antibody, human IgG1, kappa, V domains shown) VH: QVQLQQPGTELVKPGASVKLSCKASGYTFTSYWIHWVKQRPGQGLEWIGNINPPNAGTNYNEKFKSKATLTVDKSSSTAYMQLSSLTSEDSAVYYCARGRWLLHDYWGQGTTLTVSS VL: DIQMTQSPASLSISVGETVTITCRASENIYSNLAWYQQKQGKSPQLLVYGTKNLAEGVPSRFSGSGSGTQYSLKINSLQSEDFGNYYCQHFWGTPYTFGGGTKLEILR
Response: 0.05

Query: Tell me OD450 at 0.1 nM antibody reported for F1.111.11 human-murine chimeric antibody (antibody, human IgG1, kappa, V domains shown) VH: EVQLQQSGPELVKPGASVKISCKASGYTFTDYYMNWVKQSHGKSLEWIGDIYPNNGDTTYNQRFKGKATLTVDKSSSTAYMELRSLASEDSAVYYCACPYNNPFGYWGQGTLVTVSA VL: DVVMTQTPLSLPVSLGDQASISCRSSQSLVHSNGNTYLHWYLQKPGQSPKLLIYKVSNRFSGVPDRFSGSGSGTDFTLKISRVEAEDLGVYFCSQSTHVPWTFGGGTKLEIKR
Response: 2.04

Query: Report OD450 at 0.1 nM antibody, nothing else, for this binder: F1.118.4 human-murine chimeric antibody (antibody, human IgG1, kappa, V domains shown) VH: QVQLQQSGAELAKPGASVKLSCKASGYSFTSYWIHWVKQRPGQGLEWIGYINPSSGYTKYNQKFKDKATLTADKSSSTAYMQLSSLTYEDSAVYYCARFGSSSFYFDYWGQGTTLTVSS VL: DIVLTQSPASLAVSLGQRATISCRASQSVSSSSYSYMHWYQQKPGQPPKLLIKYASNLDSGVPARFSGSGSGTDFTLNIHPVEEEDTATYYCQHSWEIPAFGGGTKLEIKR
Response: 0.05

Query: Give reported OD450 at 0.1 nM antibody value for F3.54.12 human-murine chimeric antibody (antibody, human IgG1, kappa, V domains shown) VH: QVQLQQSGAELVRPGASVKLSCKASGYTFTDYEMHWVKQTPVHGLEWIGAIDPETGNTAYIQKFKGKATLTTDKSSSTAYMELRSLTSEDSAVYYCTRFYSYSHWGQGTTLTVSS VL: DVVMTQTPLSLPVSLGDQASISCRSSQSLVHSNGNTYLHWYLQKPGQSPKLLIYKVSNRFSGVPDRFSGSSSGTDFTLKISRVEAEDLGVYFCSQNTHVPPTFGGGTKLEIKR
Response: 0.05

Query: Using known records, supply OD450 at 0.1 nM antibody for F2.92.1 human-murine chimeric antibody (antibody, human IgG1, kappa, V domains shown) VH: QVQLQQSGAELVRPGASVKLSCKASGYIFSDYEIHWVKQTPVHGLECIGAVDPETGGTAYNQKFKGKATLTADKSSSTAYMELRSLTSEDSAVYFCTRFYSFAYWGQGTLVTVST VL: DVVMTQTPLSLPVSLGDQGSISCRSSQSLVHSNGNTYLQWYLQKPGQSPKLLIYKVSNRFSGVPDRFSGSGSGTDFTLKISRVEAEDLGVYFCCQSTHVLPTFGGGTKLEIKR
Response: 0.07
